- System: alpha-2-receptor
- measurement-description: Radioligand binding, alpha-2 adrenoceptor, rat cerebral cortices, [^3 H]-rauwolscine
- test-parameters: ratio of Ki alpha-1 to Ki alpha-2
Counter-ions that a name gives are not always drawn.
Classification field. Basis: alpha-2 - Selectivity Ki alpha-1/Ki alpha 2. Definitions: low: < 100; mid: ≥ 100 and < 200; high: ≥ 200

Example results:
molecule: COc1ccc2c(c1)CCCC2CN(C)CCC1CCCC1 (stereo not drawn) [Example 6f, hydrochloride]
category: high
//
molecule: CN(CCc1cccs1)CC1CCCc2cc(Cl)ccc21 (stereo not drawn) [Example 49, hydrochloride]
category: mid
//
molecule: CCN(CCc1cccs1)CC1CCCc2cc(OC)ccc21 (stereo not drawn) [Example 41, hydrochloride]
category: high
//
molecule: CN(CCc1cccs1)CC1CCCc2c1ccc(O)c2I (stereo not drawn) [Example 115, hydrochloride]
category: mid
//
molecule: COc1cc2c(c(OC)c1)C(CN(C)CCc1cccs1)CCC2 (stereo not drawn) [Example 26, hydrochloride]
category: high
//
molecule: Cc1cc(O)c(O)c2c1C(CN(C)CCc1cccc(F)c1)CCC2 (stereo not drawn) [Example 34, hydrobromide]
category: mid
//
molecule: COc1ccc2c(c1)CCCC2CN(C)CCc1cccn1C (stereo not drawn)
category: high
//
molecule: COc1ccc2c(c1)CCC2CN1CCC(c2cccs2)C1 (stereo not drawn) [Example 151, hydrochloride]
category: low

For Nc1ccc2c(c1)CCCC2CN1CCC(c2ccccc2)C1 (stereo not drawn) [Example 156, dihydrochloride] , which alpha-2 - Selectivity Ki alpha-1/Ki alpha 2 bin applies?
low

For CN(CCc1ccccc1)CC1CCCc2cc(N)ccc21 (stereo not drawn) [Example 114, dihydrochloride] , which alpha-2 - Selectivity Ki alpha-1/Ki alpha 2 bin applies?
mid

For CN(CCc1cccs1)CC1CCCc2c1ccc1c2OCCO1 (stereo not drawn) [Example 30, hydrochloride] , which alpha-2 - Selectivity Ki alpha-1/Ki alpha 2 bin applies?
mid

For CN(CCc1cccc(F)c1)CC1CCCc2c1ccc(O)c2O (stereo not drawn) [Example 85, hydrochloride] , which alpha-2 - Selectivity Ki alpha-1/Ki alpha 2 bin applies?
mid

For CCN(CCc1ccsc1)CC1CCCc2cc(OC)ccc21 (stereo not drawn) [Example 44, hydrochloride] , which alpha-2 - Selectivity Ki alpha-1/Ki alpha 2 bin applies?
mid
